Experimental target: TREK-1 channels (Homo sapiens)
Construct: expressed in transfected cells
Sequence (O95069 whole entry): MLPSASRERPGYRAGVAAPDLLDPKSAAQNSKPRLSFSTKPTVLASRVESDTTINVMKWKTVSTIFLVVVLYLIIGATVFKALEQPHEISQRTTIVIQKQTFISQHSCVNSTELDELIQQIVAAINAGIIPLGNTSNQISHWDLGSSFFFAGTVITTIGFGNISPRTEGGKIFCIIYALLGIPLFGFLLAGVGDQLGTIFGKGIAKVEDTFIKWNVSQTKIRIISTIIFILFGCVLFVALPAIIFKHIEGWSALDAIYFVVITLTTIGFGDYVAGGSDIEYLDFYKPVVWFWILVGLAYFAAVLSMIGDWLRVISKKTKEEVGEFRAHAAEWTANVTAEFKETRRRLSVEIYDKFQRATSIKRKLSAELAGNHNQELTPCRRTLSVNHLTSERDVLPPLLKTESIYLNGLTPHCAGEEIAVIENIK
Test method notes: TREK-1 current inhibition, whole cell patch clamp on h-TREK-1/HEK cell line
Format: cell-based
Particulars: h-TREK-1/HEK cells, measured at 0 mV (FIG. 8F)
Endpoint: IC50 (nM)
Numeric only. Scale: nM

Would you mind telling me what IC50 value was observed for Ac-APLPRWSAPIAVSWALR-NH2 [Analog 13, Ac-APLPRWSAPIAVSWALR-NH2] ? 0.04
